The origin of these recorded values is patent US9115092B2.

Reported values: IC50 for mTOR kinase (Homo sapiens), one per item.

>>> observedresult("CN(C)C(=O)c1ccc(NC(=O)Nc2ccc(-c3nc(N4CCOCC4)c4ccc(-c5cnn(C)c5)cc4n3)cc2F)cc1 [Example 97]")
"< 50 nM"
>>> observedresult("Cc1ccc(-c2ccc3c(N4CCOCC4)nc(-c4ccc(NC(=O)Nc5ccc(C(=O)NCCN(C)C)cc5)cc4)nc3c2)o1 [Example 201]")
"< 50 nM"
>>> observedresult("CN(C)C(=O)c1ccc(NC(=O)Nc2ccc(-c3nc(N4CCOCC4)c4ccc(-c5cnn(C)c5)cc4n3)cn2)c(F)c1 [Example 172]")
"201 to 10000 nM"
>>> observedresult("CN(C)C(=O)c1ccc(NC(=O)Nc2ccc(-c3nc(N4CCOCC4)c4ccc(-c5cccc(NS(C)(=O)=O)c5)cc4n3)cc2)cc1 [Example 23]")
"50 to 200 nM"
>>> observedresult("CN(C)C(=O)c1ccc(NC(=O)Nc2ccc(-c3nc(N4CCOCC4)c4ccc(-c5ccccn5)cc4n3)c(F)c2)cc1 [Example 268]")
"< 50 nM"

Tell me reported IC50 for CN(C)C(=O)c1ccc(NC(=O)Nc2ccc(-c3nc(N4CCOCC4)c4ncc(-c5cncnc5)cc4n3)cc2)cc1F [Example 262] , tested with mTOR kinase (Homo sapiens).
< 50 nM

Tell me reported IC50 for CN(C)C(=O)c1ccc(NC(=O)Nc2ccc(-c3nc(N4CCOCC4)c4ccc(-c5ccco5)cc4n3)cc2)cc1 [Example 80] , tested with mTOR kinase (Homo sapiens).
< 50 nM
